Cited source for all entries: patent US20250122173A1

# Assay system: ROCK2 (Homo sapiens, UniProt O75116)
# Sequence (O75116 11-552): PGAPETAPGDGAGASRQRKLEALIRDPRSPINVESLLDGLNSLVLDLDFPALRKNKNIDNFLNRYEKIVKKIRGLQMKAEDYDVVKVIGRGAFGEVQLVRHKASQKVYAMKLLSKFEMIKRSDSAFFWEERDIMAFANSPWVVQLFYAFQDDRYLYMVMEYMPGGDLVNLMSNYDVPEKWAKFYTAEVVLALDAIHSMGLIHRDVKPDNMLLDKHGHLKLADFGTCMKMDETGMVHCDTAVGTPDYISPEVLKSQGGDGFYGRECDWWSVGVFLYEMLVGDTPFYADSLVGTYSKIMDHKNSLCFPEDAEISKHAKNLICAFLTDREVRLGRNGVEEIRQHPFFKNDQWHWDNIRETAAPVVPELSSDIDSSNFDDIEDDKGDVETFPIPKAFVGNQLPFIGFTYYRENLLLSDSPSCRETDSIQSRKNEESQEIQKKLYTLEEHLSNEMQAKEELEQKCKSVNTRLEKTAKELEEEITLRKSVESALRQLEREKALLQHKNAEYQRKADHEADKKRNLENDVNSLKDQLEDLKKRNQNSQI
pIC50: −log10 of the molar value.
Test readout: pIC50

Please review the following examples before continuing.
[[record]]
compound = "CCn1nc(-c2ccc(-c3ccc(C4CC4)nc3)cc2)nc1Nc1ccc2c(c1)CNC2=O [Example 20]"
result = "> 6.52"

[[record]]
compound = "CCn1nc(-c2ccc(C3CCCN(CC(F)(F)F)C3)c(C)c2)nc1Nc1cc2c(cc1C)C(=O)NC2C (stereo not shown) [Example 147]"
result = "5.52 to 6.52"

[[record]]
compound = "CCn1nc(-c2ccc(C3=CCN(C)CC3)cc2)nc1Nc1cc2c(cc1C)C(=O)NC2C (stereo not shown) [Example 116]"
result = "5.00 to 5.52"


Consider the record given below.
Name the recorded pIC50 of CCn1nc(-c2ccc(-c3ccc(C)c(C)n3)c(C)c2)nc1Nc1cc2c(cc1C)C(=O)NC2C (stereo not shown) [Example 100] , assay system ROCK2 (Homo sapiens, UniProt O75116).
> 6.52
